Recorded values, source ChEMBL document CHEMBL3585305.

- tested_target: Cholinesterase (Equus caballus, UniProt P81908)
- Sequence (P81908 whole entry): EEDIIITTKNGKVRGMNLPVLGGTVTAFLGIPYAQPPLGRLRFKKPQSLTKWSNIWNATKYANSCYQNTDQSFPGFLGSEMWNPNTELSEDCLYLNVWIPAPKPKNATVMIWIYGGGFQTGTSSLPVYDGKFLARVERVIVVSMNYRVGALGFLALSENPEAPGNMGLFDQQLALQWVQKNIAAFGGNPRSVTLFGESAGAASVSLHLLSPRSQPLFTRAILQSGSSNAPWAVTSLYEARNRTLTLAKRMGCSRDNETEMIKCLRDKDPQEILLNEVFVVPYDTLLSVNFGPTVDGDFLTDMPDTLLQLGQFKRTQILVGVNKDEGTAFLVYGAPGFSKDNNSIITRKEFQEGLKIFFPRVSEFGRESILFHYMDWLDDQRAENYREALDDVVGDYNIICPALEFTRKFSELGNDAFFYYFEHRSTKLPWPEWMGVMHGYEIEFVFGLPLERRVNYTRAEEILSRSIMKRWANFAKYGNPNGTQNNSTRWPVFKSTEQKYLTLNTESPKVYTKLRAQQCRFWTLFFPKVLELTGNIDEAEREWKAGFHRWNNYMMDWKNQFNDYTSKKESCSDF
- test_name: Inhibition of equine serum BuChE by spectrophotometric Ellman's method
observed_property: pIC50
Entry type: numeric. Quantity: pIC50, the -log10 of concentration in molar units.

So, Cc1cc(=O)oc2cc(OCc3ccc(CN(C)Cc4ccccc4)cc3)ccc12 ? Its pIC50 was 6.00

So, Cc1cc2ccc(OCc3ccc(CN(C)Cc4ccccc4)cc3)cc2oc1=O ? Its pIC50 was 5.96

So, CCN(CCCCCOc1ccc2c(C)c(C)c(=O)oc2c1)Cc1ccccc1 ? Its pIC50 was 6.03
